Target: human IDO1 (Homo sapiens, UniProt P14902)
Sequence (P14902 whole entry): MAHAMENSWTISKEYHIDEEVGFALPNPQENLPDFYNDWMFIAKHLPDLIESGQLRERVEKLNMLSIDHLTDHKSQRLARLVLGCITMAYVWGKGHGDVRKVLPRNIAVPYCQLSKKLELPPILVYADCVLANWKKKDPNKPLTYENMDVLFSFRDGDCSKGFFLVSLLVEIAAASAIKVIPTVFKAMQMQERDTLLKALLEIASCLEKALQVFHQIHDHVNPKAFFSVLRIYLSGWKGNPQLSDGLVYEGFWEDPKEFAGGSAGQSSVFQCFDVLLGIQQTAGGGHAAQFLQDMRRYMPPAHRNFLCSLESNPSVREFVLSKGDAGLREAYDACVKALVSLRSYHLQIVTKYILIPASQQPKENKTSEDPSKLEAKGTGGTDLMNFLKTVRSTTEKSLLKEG
Experiment: IDO inhibition assay in HEK293 cells stably expressing human IDO1 (Example 252)
Conditions: 20 hours incubation, kynurenine by Ehrlich reagent, absorbance at 490 nm, read-out: HEK Human IDO-1 Potency
Protocol: 1HEK293 cells were transfected with a pCDNA-based mammalian expression vector harboring human IDO1 cDNA (NM 002164.2) by electroporation. They were cultured in medium (DMEM with 10% FBS) containing 1 mg/ml G418 for two weeks. […] The compound treatments were stopped by adding Trichloroacetic Acid (Sigma-Aldrich) to a final concentration at 0.2%. […] The absorbance at 490 nm was measured on Envision plate reader.
pIC50: −log10 of the molar value.
Quick reference: pIC50 of the listed items.

compound | pIC50
COCC(C(=O)Nc1ccc(Cl)cc1)N1CCN(c2ccnc3ccc(F)cc23)CC1 (single isomer, unassigned) | < 6.60
CC(C(=O)Nc1ccc(Cl)cc1)C1CCC(c2ccnc3c2ncn3C)CC1 (mixture of isomers) | > 6.60
C[C@@H](C(=O)Nc1cccc(C(F)F)c1)[C@H]1CC[C@@H](c2ccnc3ccc(F)cc32)CC1 (relative stereo) | > 7.30
O=C(C[C@H]1CC[C@@H](c2ccnc3ccc(F)cc32)CC1)NC1CCCCC1 | > 6.60
C[C@@H](C(=O)NC1CCCCC1)[C@H]1CC[C@@H](c2ccnc3ccc(F)cc32)CC1 (relative stereo) | > 7.30
CC(C(=O)O)c1ccc(C[C@@H](C(=O)Nc2ccc(Cl)cc2)[C@H]2CC[C@@H](c3ccnc4ccc(F)cc43)CC2)cc1 (single isomer, unassigned) | > 7.30
CC(C(=O)O)c1ccc(C[C@@H](C(=O)Nc2ccc(Cl)cc2)[C@H]2CC[C@@H](c3ccnc4ccccc43)CC2)cc1 (single isomer, unassigned) [Example 87b] | > 7.30
